Target: T1, hiR2-FL-P532A-T7 (human, UniProt Q6PJF5 1-856)
T1 sequence: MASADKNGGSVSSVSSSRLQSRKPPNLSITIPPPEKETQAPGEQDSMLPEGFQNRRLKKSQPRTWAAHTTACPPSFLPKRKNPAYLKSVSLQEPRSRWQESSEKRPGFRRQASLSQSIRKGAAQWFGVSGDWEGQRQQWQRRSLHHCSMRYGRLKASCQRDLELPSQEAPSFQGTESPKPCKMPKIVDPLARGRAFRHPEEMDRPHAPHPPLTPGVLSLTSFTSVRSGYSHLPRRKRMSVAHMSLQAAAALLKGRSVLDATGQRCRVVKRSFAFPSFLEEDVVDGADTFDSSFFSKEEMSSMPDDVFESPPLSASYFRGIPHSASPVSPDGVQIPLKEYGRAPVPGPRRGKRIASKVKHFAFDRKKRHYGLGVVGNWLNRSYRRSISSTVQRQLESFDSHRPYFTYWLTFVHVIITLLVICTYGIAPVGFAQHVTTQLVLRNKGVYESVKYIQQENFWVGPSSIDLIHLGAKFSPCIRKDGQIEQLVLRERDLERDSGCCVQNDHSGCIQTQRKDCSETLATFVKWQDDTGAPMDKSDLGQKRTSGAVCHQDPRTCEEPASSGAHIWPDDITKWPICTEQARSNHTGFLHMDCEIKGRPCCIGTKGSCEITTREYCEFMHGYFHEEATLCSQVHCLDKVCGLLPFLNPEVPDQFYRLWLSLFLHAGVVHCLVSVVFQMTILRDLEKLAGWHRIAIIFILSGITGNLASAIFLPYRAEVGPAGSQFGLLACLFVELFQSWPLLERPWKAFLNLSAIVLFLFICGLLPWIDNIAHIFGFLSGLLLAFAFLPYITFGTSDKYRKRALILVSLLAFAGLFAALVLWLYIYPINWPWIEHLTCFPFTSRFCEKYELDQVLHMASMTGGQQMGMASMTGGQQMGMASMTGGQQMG
Test: FACS, MEF-DKO cells, 3 µg/ml
outcomeMeasure: loss of binding vs wild type

Looking up antibody 5 (antibody, V domains shown, mouse IgG, kappa light chain; also called clone #5; purified antibody 5) VH: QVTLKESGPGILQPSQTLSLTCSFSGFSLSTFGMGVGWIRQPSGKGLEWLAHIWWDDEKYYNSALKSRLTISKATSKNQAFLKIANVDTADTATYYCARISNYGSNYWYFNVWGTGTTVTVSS VL: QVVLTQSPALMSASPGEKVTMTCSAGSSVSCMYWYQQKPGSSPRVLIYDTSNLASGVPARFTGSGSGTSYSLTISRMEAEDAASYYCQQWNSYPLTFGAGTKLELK , I found its loss of binding vs wild type recorded as ≥ 60%

Looking up antibody 22 (antibody, V domains shown, mouse IgG, kappa light chain; also called clone #22; purified antibody 22) VH: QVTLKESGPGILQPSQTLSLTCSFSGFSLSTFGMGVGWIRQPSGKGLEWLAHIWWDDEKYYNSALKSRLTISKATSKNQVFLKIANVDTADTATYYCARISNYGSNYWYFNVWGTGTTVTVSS VL: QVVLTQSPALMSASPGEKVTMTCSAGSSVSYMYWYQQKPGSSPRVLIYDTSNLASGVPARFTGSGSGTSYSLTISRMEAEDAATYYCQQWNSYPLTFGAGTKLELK , I found its loss of binding vs wild type recorded as ≥ 30%

Looking up antibody 42 (antibody, V domains shown, mouse IgG, kappa light chain; also called clone #42; purified antibody 42) VH: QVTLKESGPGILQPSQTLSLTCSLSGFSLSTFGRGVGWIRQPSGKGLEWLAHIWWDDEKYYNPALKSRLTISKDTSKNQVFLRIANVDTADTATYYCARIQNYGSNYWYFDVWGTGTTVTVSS VL: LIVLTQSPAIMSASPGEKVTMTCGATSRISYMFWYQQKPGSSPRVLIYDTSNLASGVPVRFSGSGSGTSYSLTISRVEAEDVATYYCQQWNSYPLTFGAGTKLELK , I found its loss of binding vs wild type recorded as ≥ 60%

Looking up antibody 44 (antibody, V domains shown, mouse IgG, kappa light chain; also called clone #44; purified antibody 44) VH: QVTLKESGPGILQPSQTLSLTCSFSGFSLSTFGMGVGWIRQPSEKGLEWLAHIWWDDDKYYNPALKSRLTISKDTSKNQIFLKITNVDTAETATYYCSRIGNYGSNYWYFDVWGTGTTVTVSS VL: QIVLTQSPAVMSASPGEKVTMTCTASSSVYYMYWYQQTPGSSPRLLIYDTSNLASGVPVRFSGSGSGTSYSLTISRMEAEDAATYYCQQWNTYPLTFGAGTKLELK , I found its loss of binding vs wild type recorded as ≥ 60%

Looking up antibody 43 (antibody, V domains shown, mouse IgG, kappa light chain; also called clone #43; purified antibody 43) VH: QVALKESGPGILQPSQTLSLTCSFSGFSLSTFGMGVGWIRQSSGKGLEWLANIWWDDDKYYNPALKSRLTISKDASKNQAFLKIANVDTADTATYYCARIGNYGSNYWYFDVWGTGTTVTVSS VL: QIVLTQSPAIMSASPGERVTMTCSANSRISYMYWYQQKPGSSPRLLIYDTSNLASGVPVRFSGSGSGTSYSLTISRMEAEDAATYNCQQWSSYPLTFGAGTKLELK , I found its loss of binding vs wild type recorded as ≥ 60%
